# credit: ChEMBL document CHEMBL4261501

Could you please report measured IC50 for the items listed next?
system: Tubulin
procedure.text: Inhibition of tubulin polymerization (unknown origin) after 1 hr by fluorescence assay
Remember to put the unit after the number in your answer.

Task item: Hello, I am looking for reported IC50 with Tubulin for `O=C(/C=C\Nc1ccc2ncccc2c1)c1c(-c2ccccc2)nc2ccccn12` . Could you help?
Reply: 1.82 µM

Task item: Hello, I am looking for reported IC50 with Tubulin for `O=C(/C=C\Nc1ccc(Br)cc1)c1c(-c2ccc(Cl)cc2)nc2ccccn12` . Could you help?
Reply: 1.93 µM

---

Could you please report measured IC50 for the items listed next?
Tested on: MCF7
procedure.text: cells
experimental.setup: Homo sapiens, MCF7, 48 h
Description: Cytotoxicity against human MCF7 cells after 48 hrs by MTT assay
Remember to put the unit after the number in your answer.

Task item: Can you look up the measured IC50 of `O=C(/C=C\Nc1ccc2[nH]ccc2c1)c1c(-c2ccc(Cl)cc2)nc2ccccn12` for me?
Reply: 7.12 µM

Task item: Can you look up the measured IC50 of `COc1cc(N/C=C\C(=O)c2c(-c3ccccc3)nc3ccccn23)cc(OC)c1` for me?
Reply: 10.2 µM

Task item: Can you look up the measured IC50 of `COc1ccc(-c2nc3ccccn3c2C(=O)/C=C\Nc2cc(OC)cc(OC)c2)cc1` for me?
Reply: 14.9 µM

Task item: Can you look up the measured IC50 of `COc1ccc(-c2nc3ccccn3c2C(=O)/C=C\Nc2ccc(F)cc2)cc1` for me?
Reply: 13 µM

Task item: Can you look up the measured IC50 of `O=C(/C=C\Nc1ccc(Br)cc1)c1c(-c2ccc(Cl)cc2)nc2ccccn12` for me?
Reply: 2.69 µM

Task item: Can you look up the measured IC50 of `COc1ccc(-c2nc3ccccn3c2C(=O)/C=C\Nc2ccc(Br)cc2)cc1` for me?
Reply: 9.83 µM

Task item: Can you look up the measured IC50 of `O=C(/C=C\Nc1ccc2ncccc2c1)c1c(-c2ccc(Cl)cc2)nc2ccccn12` for me?
Reply: 22.8 µM

Task item: Can you look up the measured IC50 of `COc1ccc(N/C=C\C(=O)c2c(-c3ccc(Cl)cc3)nc3ccccn23)cc1` for me?
Reply: 16.3 µM

Task item: Can you look up the measured IC50 of `COc1ccc(-c2nc3ccccn3c2C(=O)/C=C\Nc2ccc3[nH]ccc3c2)cc1` for me?
Reply: 18.9 µM

Task item: Can you look up the measured IC50 of `O=C(/C=C\Nc1ccc(Br)cc1)c1c(-c2ccccc2)nc2ccccn12` for me?
Reply: 8.67 µM

Task item: Can you look up the measured IC50 of `COc1cc(N/C=C\C(=O)c2c(-c3ccc(Cl)cc3)nc3ccccn23)cc(OC)c1OC` for me?
Reply: 3.39 µM

Task item: Can you look up the measured IC50 of `O=C(/C=C\Nc1cnc2ccccc2c1)c1c(-c2ccccc2)nc2ccccn12` for me?
Reply: 5.17 µM

Task item: Can you look up the measured IC50 of `COc1ccc(-c2nc3ccccn3c2C(=O)/C=C\Nc2ccc3ncccc3c2)cc1` for me?
Reply: 11.6 µM

Task item: Can you look up the measured IC50 of `COc1ccc(N/C=C\C(=O)c2c(-c3ccccc3)nc3ccccn23)cc1` for me?
Reply: 7.61 µM

Task item: Can you look up the measured IC50 of `O=C(/C=C\Nc1ccc2ncccc2c1)c1c(-c2ccccc2)nc2ccccn12` for me?
Reply: 1.81 µM

Task item: Can you look up the measured IC50 of `COc1cc(N/C=C\C(=O)c2c(-c3ccc(Cl)cc3)nc3ccccn23)cc(OC)c1` for me?
Reply: 13.6 µM

Task item: Can you look up the measured IC50 of `COc1ccc(-c2nc3ccccn3c2C(=O)/C=C\Nc2cnc3ccccc3c2)cc1` for me?
Reply: 15 µM

Task item: Can you look up the measured IC50 of COC(=O)Nc1nc2cc(C(=O)c3cccs3)ccc2[nH]1 [NOCODAZOLE] for me?
Reply: 1.09 µM

Task item: Can you look up the measured IC50 of `O=C(/C=C\Nc1ccc2cc[nH]c2c1)c1c(-c2ccc(Cl)cc2)nc2ccccn12` for me?
Reply: 9.6 µM

Task item: Can you look up the measured IC50 of `COc1ccc(N/C=C\C(=O)c2c(-c3ccc(OC)cc3)nc3ccccn23)cc1` for me?
Reply: 16.5 µM

Task item: Can you look up the measured IC50 of `COc1ccc(-c2nc3ccccn3c2C(=O)/C=C\Nc2ccc3cc[nH]c3c2)cc1` for me?
Reply: 19.4 µM

Task item: Can you look up the measured IC50 of `O=C(/C=C\Nc1cnc2ccccc2c1)c1c(-c2ccc(Cl)cc2)nc2ccccn12` for me?
Reply: 18.9 µM
